Reference for the values: patent US11203601B2

# TEST METHOD NOTES: Plasma stability, mouse
# Assay type: in vitro ADME, mouse (CD-1)
# CONDITION PARAMETERS: mouse plasma, 5 μM, 5 hours at 37° C.
Measured Plasma Stability (Mouse, % remaining) of individual entries
EXPERIMENTAL ENDPOINT: Plasma Stability (Mouse, % remaining) (%)

[[record]]
compound = "CC[C@@]1(c2ccccc2)C2=C(CC(C)(C)CC2=O)Nc2n[nH]cc21 [drawing 179]"
units_text = "%"
numeric_readout = 95.3

[[record]]
compound = "CC[C@@]1(c2cccc(Cl)c2)C2=C(CC(C)(C)CC2=O)Nc2ncsc21"
units_text = "%"
numeric_readout = 98.1

[[record]]
compound = "CC[C@@]1(c2cccc(OC)c2)C2=C(CC(C)(C)CC2=O)Nc2ncsc21"
units_text = "%"
numeric_readout = 97.0

[[record]]
compound = "CC[C@@]1(c2cccc(C)c2)C2=C(CC(C)(C)CC2=O)Nc2ncsc21 [drawing 176]"
units_text = "%"
numeric_readout = 97.8

[[record]]
compound = "CC[C@@]1(c2ccccc2)C2=C(CC(C)(C)CC2=O)Nc2ncsc21 [drawing 173]"
units_text = "%"
numeric_readout = 100

[[record]]
compound = "CC1(C)CC(=O)C2=C(C1)Nc1ncsc1[C@]2(C)c1ccccc1 [drawing 172]"
units_text = "%"
numeric_readout = 100

[[record]]
compound = "CC[C@@]1(c2cccc(F)c2)C2=C(CC(C)(C)CC2=O)Nc2ncsc21 [drawing 174]"
units_text = "%"
numeric_readout = 96.0


###

# TEST METHOD NOTES: Liver microsomal stability, mouse
# Type: in vitro ADME, mouse (CD-1)
# CONDITION PARAMETERS: 1 μM, 60 minutes at 37° C.
Listed below: Mouse Liver Microsomal Stability, % remaining values for each entry.
EXPERIMENTAL ENDPOINT: Mouse Liver Microsomal Stability, % remaining (%)

[[record]]
molecule = "CC[C@@]1(c2cccc(F)c2)C2=C(CC(C)(C)CC2=O)Nc2ncsc21 [drawing 174]"
numeric_readout = 3.9

[[record]]
molecule = "CC[C@@]1(c2cccc(Cl)c2)C2=C(CC(C)(C)CC2=O)Nc2ncsc21"
numeric_readout = 11.1

[[record]]
molecule = "CC1(C)CC(=O)C2=C(C1)Nc1ncsc1[C@]2(C)c1ccccc1 [drawing 172]"
numeric_readout = 0.7

[[record]]
molecule = "CC1(C)CC(=O)C2=C(C1)Nc1n[nH]cc1[C@]2(C)c1ccccc1 [drawing 178]"
numeric_readout = 100

[[record]]
molecule = "CC[C@@]1(c2ccccc2)C2=C(CC(C)(C)CC2=O)Nc2n[nH]cc21 [drawing 179]"
numeric_readout = 93


###

# Test system: MDR1
# TEST METHOD NOTES: Additional MDCK permeability (MDR1-MDCK) assay (Example 6)
# Assay type: in vitro ADME
# CONDITION PARAMETERS: dog, read-out: MDCK PERMEABILITY (MDR1-MDCK) Mean P. Ratio(B-A/A-B)
EXPERIMENTAL ENDPOINT: efflux ratio at 120 min, 5 μM

[[record]]
compound = "CCC1(c2ccccc2)C2=C(CC(C)(C)CC2=O)Nc2ncsc21 (single isomer, unassigned) [Compound 1-E2]"
experimental_endpoint = "efflux ratio at 120 min, 5 μM"
numeric_readout = 3.2


###

# TEST METHOD NOTES: physchem
# CONDITION PARAMETERS: 23 °C, aqueous buffer, thermodynamic from solid
Collected solubility thermodynamic at 18 h values appear next to each entry.
EXPERIMENTAL ENDPOINT: solubility thermodynamic at 18 h (µM)

[[record]]
compound = "CC[C@@]1(c2ccccc2)C2=C(CC(C)(C)CC2=O)Nc2n[nH]cc21 [drawing 179]"
units_text = "µM"
numeric_readout = 480

[[record]]
compound = "Cc1c[nH]c(-c2cnc(NCCNc3ccc(C#N)cn3)nc2-c2ccc(Cl)cc2Cl)n1 [drawing 180]"
units_text = "µM"
numeric_readout = 116


###

# TEST METHOD NOTES: Plasma protein binding (RED), mouse
# Assay type: in vitro ADME, mouse (CD-1)
# CONDITION PARAMETERS: CD-1, 5 hours at 37° C., read-out: Plasma Protein Binding (Mouse, % bound) (converted)
EXPERIMENTAL ENDPOINT: fraction unbound at 5 h, 5 μM

[[record]]
compound = "CC[C@@]1(c2cccc(OC)c2)C2=C(CC(C)(C)CC2=O)Nc2ncsc21"
experimental_endpoint = "fraction unbound at 5 h, 5 μM"
numeric_readout = 0.077

[[record]]
compound = "CC[C@@]1(c2cccc(C)c2)C2=C(CC(C)(C)CC2=O)Nc2ncsc21 [drawing 176]"
experimental_endpoint = "fraction unbound at 5 h, 5 μM"
numeric_readout = 0.045

[[record]]
compound = "CC[C@@]1(c2ccccc2)C2=C(CC(C)(C)CC2=O)Nc2ncsc21 [drawing 173]"
experimental_endpoint = "fraction unbound at 5 h, 5 μM"
numeric_readout = 0.074

[[record]]
compound = "CC1(C)CC(=O)C2=C(C1)Nc1ncsc1[C@]2(C)c1ccccc1 [drawing 172]"
experimental_endpoint = "fraction unbound at 5 h, 5 μM"
numeric_readout = 0.004

[[record]]
compound = "Cc1c[nH]c(-c2cnc(NCCNc3ccc(C#N)cn3)nc2-c2ccc(Cl)cc2Cl)n1 [drawing 180]"
experimental_endpoint = "fraction unbound at 5 h, 5 μM"
numeric_readout = 0.043

[[record]]
compound = "CC[C@@]1(c2cccc(Cl)c2)C2=C(CC(C)(C)CC2=O)Nc2ncsc21"
experimental_endpoint = "fraction unbound at 5 h, 5 μM"
numeric_readout = 0.023

[[record]]
compound = "CC[C@@]1(c2cccc(F)c2)C2=C(CC(C)(C)CC2=O)Nc2ncsc21 [drawing 174]"
experimental_endpoint = "fraction unbound at 5 h, 5 μM"
numeric_readout = 0.043

[[record]]
compound = "CC[C@@]1(c2ccccc2)C2=C(CC(C)(C)CC2=O)Nc2n[nH]cc21 [drawing 179]"
experimental_endpoint = "fraction unbound at 5 h, 5 μM"
numeric_readout = 0.212


###

# SUBJECT OF TEST: GSK3α (Homo sapiens (Human))
# Sequence (P49840 whole entry): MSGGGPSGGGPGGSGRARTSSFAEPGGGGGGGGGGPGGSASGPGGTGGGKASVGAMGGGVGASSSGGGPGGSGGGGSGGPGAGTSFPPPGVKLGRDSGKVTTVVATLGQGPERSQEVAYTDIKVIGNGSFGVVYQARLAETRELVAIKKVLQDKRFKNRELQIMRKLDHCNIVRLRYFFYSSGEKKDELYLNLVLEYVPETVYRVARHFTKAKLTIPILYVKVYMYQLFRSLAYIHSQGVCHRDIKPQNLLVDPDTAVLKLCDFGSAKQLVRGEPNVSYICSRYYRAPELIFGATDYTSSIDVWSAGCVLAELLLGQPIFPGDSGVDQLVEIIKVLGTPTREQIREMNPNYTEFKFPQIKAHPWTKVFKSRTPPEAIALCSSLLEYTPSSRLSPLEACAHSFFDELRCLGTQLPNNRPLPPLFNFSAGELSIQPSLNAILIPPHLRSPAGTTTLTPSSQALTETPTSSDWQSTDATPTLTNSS
# TEST METHOD NOTES: Mobility shift microfluidics assay
# Format: biochemical
# if measured IC50 < 600 nM: 1  # else: 0

[[record]]
compound = "CC[C@]1(c2cccc(Cl)c2)C2=C(CC(C)(C)CC2=O)Nc2ncsc21 (single isomer, unassigned)"
subject_of_test = "GSK3α (Homo sapiens (Human))"
classification = 0

[[record]]
compound = "CC[C@@]1(c2cccc(C)c2)C2=C(CC(C)(C)CC2=O)Nc2ncsc21 [drawing 163]"
subject_of_test = "GSK3α (Homo sapiens (Human))"
classification = 1

[[record]]
compound = "CC[C@]1(c2ccccc2)C2=C(CC(C)(C)CC2=O)Nc2ncsc21"
subject_of_test = "GSK3α (Homo sapiens (Human))"
classification = 0

[[record]]
compound = "CC[C@@]1(c2ccccc2)C2=C(CC3(CCCCC3)CC2=O)Nc2ncsc21"
subject_of_test = "GSK3α (Homo sapiens (Human))"
classification = 1

[[record]]
compound = "CC1(C)CC(=O)C2=C(C1)Nc1ncsc1[C@@]2(C)c1cccc(F)c1"
subject_of_test = "GSK3α (Homo sapiens (Human))"
classification = 0

[[record]]
compound = "CC1(C)CC(=O)C2=C(C1)Nc1ncsc1[C@@]2(C)c1ccccc1"
subject_of_test = "GSK3α (Homo sapiens (Human))"
classification = 0

[[record]]
compound = "CC[C@]1(c2cccc(F)c2)C2=C(CC(C)(C)CC2=O)Nc2ncsc21 (single isomer, unassigned)"
subject_of_test = "GSK3α (Homo sapiens (Human))"
classification = 0

[[record]]
compound = "CC[C@]1(c2ccccc2)C2=C(CC3(CCCCC3)CC2=O)Nc2ncsc21"
subject_of_test = "GSK3α (Homo sapiens (Human))"
classification = 0

[[record]]
compound = "CC[C@@]1(c2cccc(OC)c2)C2=C(CC(C)(C)CC2=O)Nc2ncsc21 (single isomer, unassigned)"
subject_of_test = "GSK3α (Homo sapiens (Human))"
classification = 1

[[record]]
compound = "CC[C@@]1(c2cccc(Cl)c2)C2=C(CC(C)(C)CC2=O)Nc2ncsc21 (single isomer, unassigned)"
subject_of_test = "GSK3α (Homo sapiens (Human))"
classification = 1

[[record]]
compound = "CC1(C)CC(=O)C2=C(C1)Nc1ncsc1[C@]2(C)c1ccccc1 [drawing 153]"
subject_of_test = "GSK3α (Homo sapiens (Human))"
classification = 1

[[record]]
compound = "CC[C@@]1(c2ccccc2)C2=C(CC(C)(C)CC2=O)Nc2ncsc21 [drawing 157]"
subject_of_test = "GSK3α (Homo sapiens (Human))"
classification = 1

[[record]]
compound = "CC[C@]1(c2cccc(OC)c2)C2=C(CC(C)(C)CC2=O)Nc2ncsc21"
subject_of_test = "GSK3α (Homo sapiens (Human))"
classification = 0

[[record]]
compound = "CC1(C)CC(=O)C2=C(C1)Nc1ncsc1[C@]2(C)c1cccc(F)c1"
subject_of_test = "GSK3α (Homo sapiens (Human))"
classification = 1

